Entries and their viability
TEST_NAME: Cell viability assay (Cell Counting Kit-8);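 further: PC12 cells in 96-well plates, WST-8 turned into formazan by cellular dehydrogenases, absorbance read at 450 nm after 2 h with the reagent, signal proportional to living cell number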
Type: cell-based
EXPERIMENTAL_CONTEXT: Aβ 5 μM + small peptide 0.5 μM; % PC12 cell viability compared to untreated control
Ends that are not written are not given here.
ENDPOINT_LABEL: viability (%)

INSERT INTO assay_data (substance, numeric_result) VALUES
  ('KAEFHRWSSYMV [NBP-1203]', 95.5),
  ('MVHWKAEFHRWS [NBP-1213]', 90.8),
  ('HWKAEFHRWSSY [NBP-1201]', 93.1),
  ('SYMVHWKAEFHRW [NBP-1311]', 86.1),
  ('SSYMVHWKAEFH [NBP-1210]', 97.5),
  ('SYMVHWK [NBP-711]', 106),
  ('WKAEFHRWSSYMVH [NBP-1402]', 91.6),
  ('WSSYMVHWKA [NBP-1009]', 97.5),
  ('WSSYMVH [NBP-709]', 102),
  ('VHWKAEFHRWSS [NBP-1214]', 85.5),
  ('HRWSSYMVHWKAE [NBP-1307]', 92.5),
  ('YMVHWKAEFHR [NBP-1112]', 93.4),
  ('KAEFHRWSSYMVH [NBP-1303]', 91.2),
  ('HRWSSYMVHWKA [NBP-1207]', 87.4),
  ('SYMVHWKAEF [NBP-1011]', 81.7),
  ('MVHWKAEFHRWSSY [NBP-1413]', 95.2),
  ('RWSSYMVHWKA [NBP-1108]', 77.7),
  ('HRWSSY [NBP-607]', 94.9),
  ('VHWKAEFHRWSSY [NBP-1314]', 97.9),
  ('SSYMVHW [NBP-710, SSYMVHW]', 109),
  ('FHRWSSYMVHWK [NBP-1206]', 93.6),
  ('SSYMVHWKAEFHRW [NBP-1410]', 93.5),
  ('VHWKAE [NBP-614]', 77.7);

Numbers sourced from patent US10729749B2.
